Catalogue of molecules with associated melting point

molecule	melting point
CC1(c2ccccc2)NC(=O)N(CCN2CCN(C(=O)c3ccc(F)cc3)CC2)C1=O (centres unmarked)	117 to 119 °C
CC1(c2ccccc2)NC(=O)N(CCCN2CCN(C(=O)c3ccc(F)cc3)CC2)C1=O (centres unmarked)	72 to 74 °C
O=C(c1ccc(F)cc1)N1CCN(CCN2C(=O)NC3(CCC(c4ccccc4)CC3)C2=O)CC1 (centres unmarked)	224 to 226 °C
O=C(c1ccc(F)cc1)N1CCN(CCCN2C(=O)NC3(CCC(c4ccccc4)CC3)C2=O)CC1 (centres unmarked)	203 to 205 °C
O=C1NC2(CCC(c3ccccc3)CC2)C(=O)N1CCN1CCN(C(c2ccccc2)c2ccccc2)CC1 (centres unmarked)	243 to 245 °C
